# Tested on: 186277-243-T-J2-PDC complex spheroid growth
# assay-overview: Anticancer human tumor 186277-243-T-J2-PDC patient-derived colon adenocarcinoma cell line growth inhibition [AhR]
# condition: curve of first compound; second compound 0.1 µM
Quick reference for IC50 among some compounds

| compound | test-value |
| --- | --- |
| Nc1ccn(C2OC(CO)C(O)C2(F)F)c(=O)n1 (stereo not drawn) + Cc1ccccc1N=Nc1ccc(NC(=O)c2ccnn2C)c(C)c1 | < 31.6 nM |
| CC1(C)CCC(CN2CCN(c3ccc(C(=O)NS(=O)(=O)c4ccc(NCC5CCOCC5)c([N+](=O)[O-])c4)c(Oc4cnc5[nH]ccc5c4)c3)CC2)=C(c2ccc(Cl)cc2)C1 + Cc1cncc(-c2nc(NCCc3c[nH]c4ccccc34)c3ncn(C(C)C)c3n2)c1 | > 10000 nM |

The record that follows has no IC50 shown yet.
Problem: Sample CCc1c2c(nc3ccc(O)cc13)-c1cc3c(c(=O)n1C2)COC(=O)[C@]3(O)CC + Cc1ccccc1N=Nc1ccc(NC(=O)c2ccnn2C)c(C)c1 — what was its IC50?
Solution: 74 nM

###

# System: 186277-243-T-J2-PDC complex spheroid growth
# assay-overview: Anticancer human tumor 186277-243-T-J2-PDC cell line growth inhibition [AhR];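 note: spheroids exposed to compounds for seven days before the viability read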;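 for viability, T/C: luminescent signal used as a stand-in for viable cell amount; 100% = DMSO vehicle control wells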
# condition: second compound 1 µM; first compound 0.316 µM; stronger effect = lower value
reported-property: viability, T/C (%)
Write down the numeric answer in % and omit the unit.

| molecule | assayed-target | viability, T/C, % |
| --- | --- | --- |
| CC1COCCN1c1cc(-c2ccnn2C)c2ccnc(-c3ccn[nH]3)c2n1 (stereo unspecified) + Cc1ccccc1N=Nc1ccc(NC(=O)c2ccnn2C)c(C)c1 | 186277-243-T-J2-PDC complex spheroid growth | 9.5 |
| Nc1ncn(C2CC(O)C(CO)O2)c(=O)n1 (stereo unspecified) + Cc1ccccc1N=Nc1ccc(NC(=O)c2ccnn2C)c(C)c1 | 186277-243-T-J2-PDC complex spheroid growth | 119 |

Problem: What value of viability, T/C on 186277-243-T-J2-PDC complex spheroid growth does O=C(C=Cc1cccc(S(=O)(=O)Nc2ccccc2)c1)NO + Cc1ccccc1N=Nc1ccc(NC(=O)c2ccnn2C)c(C)c1 have?
Solution: 108

Problem: What value of viability, T/C on 186277-243-T-J2-PDC complex spheroid growth does COc1cccc2c1C(=O)c1c(O)c3c(c(O)c1C2=O)CC(O)(C(=O)CO)CC3OC1CC(N)C(O)C(C)O1 (stereo unspecified) + Cc1cncc(-c2nc(NCCc3c[nH]c4ccccc34)c3ncn(C(C)C)c3n2)c1 have?
Solution: 21.2

Problem: What value of viability, T/C on 186277-243-T-J2-PDC complex spheroid growth does CC1COCCN1c1cc(C2(S(C)(=N)=O)CC2)nc(-c2ccnc3[nH]ccc23)n1 (stereo unspecified) + CC(CO)NC(=O)c1cc(-c2ccc(Cl)cc2)nn(-c2cnn(C)c2)c1=O have?
Solution: 89.8

Problem: What value of viability, T/C on 186277-243-T-J2-PDC complex spheroid growth does COc1cc(Nc2ncc3c(n2)-c2ccc(Cl)cc2C(c2c(F)cccc2OC)=NC3)ccc1C(=O)O + CC(CO)NC(=O)c1cc(-c2ccc(Cl)cc2)nn(-c2cnn(C)c2)c1=O have?
Solution: 21.9

###

# Test system: 186277-243-T-J2-PDC complex spheroid growth
# assay-overview: Anticancer human tumor 186277-243-T-J2-PDC cell line growth inhibition [AhR];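 note: spheroids exposed to compounds for seven days before the viability read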
# condition: curve of first compound; second compound 10 µM
reported-property: IC50 (nM)

(A) O=C(C=Cc1cccc(S(=O)(=O)Nc2ccccc2)c1)NO + Cc1cncc(-c2nc(NCCc3c[nH]c4ccccc34)c3ncn(C(C)C)c3n2)c1
(B) CC1COCCN1c1cc(C2(S(C)(=N)=O)CC2)nc(-c2ccnc3[nH]ccc23)n1 (stereo unspecified) + Cc1ccccc1N=Nc1ccc(NC(=O)c2ccnn2C)c(C)c1
Problem: Could you please tell me which of these two has the higher IC50: A or B ? State your choice using its label.
Solution: B

(P) NS(=O)(=O)OCC1CC(n2ccc3c(NC4CCc5ccccc54)ncnc32)CC1O (stereo unspecified) + Cc1cncc(-c2nc(NCCc3c[nH]c4ccccc34)c3ncn(C(C)C)c3n2)c1
(Q) COc1cc(C2c3cc4c(cc3C(OC3OC5COC(C)OC5C(O)C3O)C3COC(=O)C23)OCO4)cc(OC)c1O (stereo unspecified) + CC(CO)NC(=O)c1cc(-c2ccc(Cl)cc2)nn(-c2cnn(C)c2)c1=O
(R) CC1(C)CCC(CN2CCN(c3ccc(C(=O)NS(=O)(=O)c4ccc(NCC5CCOCC5)c([N+](=O)[O-])c4)c(Oc4cnc5[nH]ccc5c4)c3)CC2)=C(c2ccc(Cl)cc2)C1 + CC(CO)NC(=O)c1cc(-c2ccc(Cl)cc2)nn(-c2cnn(C)c2)c1=O
Problem: Could you please order the items by IC50, going from the lowest number to the highest? Output the labels ranked as instructed.
Solution: P, Q, R

Data credit: PubChem BioAssay AID1918991
